I'd be grateful if you could share measured log10 Ki for these entries.
# System Tested: human D2 receptor (Homo sapiens (Human), UniProt P14416)
# Sequence (P14416 whole entry): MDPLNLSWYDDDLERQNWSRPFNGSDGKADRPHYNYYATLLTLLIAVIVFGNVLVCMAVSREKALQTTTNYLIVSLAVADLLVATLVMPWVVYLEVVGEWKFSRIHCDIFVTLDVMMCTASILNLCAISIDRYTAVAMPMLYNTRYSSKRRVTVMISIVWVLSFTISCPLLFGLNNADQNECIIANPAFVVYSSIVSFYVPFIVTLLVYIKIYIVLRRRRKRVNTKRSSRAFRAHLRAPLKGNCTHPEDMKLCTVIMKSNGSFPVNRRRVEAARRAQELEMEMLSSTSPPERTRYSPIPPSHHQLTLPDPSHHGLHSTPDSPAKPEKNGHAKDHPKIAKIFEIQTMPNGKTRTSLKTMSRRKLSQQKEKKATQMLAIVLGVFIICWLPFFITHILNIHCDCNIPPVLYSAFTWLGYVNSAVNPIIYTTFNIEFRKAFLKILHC
# Test: Radioligand binding assay, [3H]-spiperone, human D2 receptor
# Run Parameters: membranes of HEK293 EBNA cells expressing human D2; 0.7 nM [3H]-spiperone
Quick note: numbers are log10 of Ki, with nM as the unit.

Quick one: log10 Ki for CO[C@H](C)C(=O)N[C@H]1CC[C@H](CCN2CCN(c3nccc4c3CCO4)CC2)CC1 [Example 135] ?
2.83

And O=C(N[C@H]1CC[C@H](CCN2CCN(c3nccc4sccc34)CC2)CC1)C1CCOCC1 [Example 24] ?
3.00

And what about the compound CCS(=O)(=O)N[C@H]1CC[C@H](CCN2CCN(c3nccc4c3CCO4)CC2)CC1 [Example 49] ?
3.04

Please give the result for Cc1cnc(N2CCN(CC[C@H]3CC[C@H](NC(=O)CC4CCOCC4)CC3)CC2)c2ccoc12 [Example 106] too.
3.43

Try this compound next: O=C(C[C@H]1COCCO1)N[C@H]1CC[C@H](CCN2CCN(c3nccc4c3CCO4)CC2)CC1 [Example 67]
3.16

Another compound: CC[C@@H](O)CC(=O)N[C@H]1CC[C@H](CCN2CCN(c3nccc4c3CCO4)CC2)CC1 [Example 140]
2.93

Request: CS(=O)(=O)N[C@H]1CC[C@H](CCN2CCN(c3nccc4sccc34)CC2)CC1 [Example 30]
2.42

Now give it for CO[C@H]1CC[C@H](CC(=O)N[C@H]2CC[C@H](CCN3CCN(c4nccc5occc45)CC3)CC2)CC1 [Example 9] too.
3.16

How about this compound: CN(C)C(=O)N[C@H]1CC[C@H](CCN2CCN(c3nccc4c3CCO4)CC2)CC1 [Example 78]
2.51

Further, for O=C(N[C@H]1CC[C@H](CCN2CCN(c3nccc4c3CCO4)CC2)CC1)C1CCOCC1 [Example 33] ?
2.70

Another compound to check: O=C(N[C@H]1CC[C@H](CCN2CCN(c3nccc4c3CCO4)CC2)CC1)C1CC1 [Example 63]
2.69

And the next one, CCCC(=O)N[C@H]1CC[C@H](CCN2CCN(c3nccc4c3CCO4)CC2)CC1 [Example 92] ?
2.92

----------
Hi there, I'd appreciate the recorded melting point for every entry that follows.

Please report the recorded melting point for `O=C(N[C@H]1CC[C@H](CCN2CCN(c3nccc4c3CCO4)CC2)CC1)c1ccc(N2CCCCC2)cc1` .
214.5 °C

Please do the same for O=C(N[C@H]1CC[C@H](CCN2CCN(c3nccc4c3CCO4)CC2)CC1)C1CC1(F)F (stereo partly shown) as well.
184.5 °C

Another molecule to check: `C[C@]1(O)CC[C@@H](C(=O)N[C@H]2CC[C@H](CCN3CCN(c4nccc5c4CCO5)CC3)CC2)CC1`
216.5 °C

For `CS(=O)(=O)N[C@H]1CC[C@H](CCN2CCN(c3nccc4c3CCO4)CC2)CC1` then?
220 °C

----------
Attribute Measured: melting point
State the result as a value with its unit after it.

For the molecule `O=C(N[C@H]1CC[C@H](CCN2CCN(c3nccc4c3CCO4)CC2)CC1)c1ccc(-n2cccc2)cc1` , what melting point is on record?
234 °C

And for CCC(C)C(=O)N[C@H]1CC[C@H](CCN2CCN(c3nccc4c3CCO4)CC2)CC1 (mixture of isomers) ?
205.5 °C

Same for `O=S(=O)(N[C@H]1CC[C@H](CCN2CCN(c3nccc4c3CCO4)CC2)CC1)c1ccccc1`
168.5 °C

Follow-up entry: `N#Cc1ccc(C(=O)N[C@H]2CC[C@H](CCN3CCN(c4nccc5c4CCO5)CC3)CC2)cc1`
243.5 °C

Query `O=C(N[C@H]1CC[C@H](CCN2CCN(c3nccc4c3CCO4)CC2)CC1)c1cnc(N2CCOCC2)cn1` next
192.5 °C

Then `CCCCC(=O)N[C@H]1CC[C@H](CCN2CCN(c3nccc4c3CCO4)CC2)CC1` ?
180.5 °C

Query `CN(C)S(=O)(=O)N[C@H]1CC[C@H](CCN2CCN(c3nccc4c3CCO4)CC2)CC1` next
139.5 °C

----------
Kindly supply the reported melting point values for the records listed here.
// units = °C; emit number, no label

Which measured melting point value corresponds to `CC(=O)N[C@H]1CC[C@H](CCN2CCN(c3nc(C)cc4occc34)CC2)CC1` ?
207.5

// same read-out, input: O=C(N[C@H]1CC[C@H](CCN2CCN(c3nccc4c3CCO4)CC2)CC1)C1CCCO1 (mixture of isomers)
176.5

Try this compound too: `O=C(CC(F)(F)F)N[C@H]1CC[C@H](CCN2CCN(c3nccc4c3CCO4)CC2)CC1`
195.5

Then `COC(CC(=O)N[C@H]1CC[C@H](CCN2CCN(c3nccc4c3CCO4)CC2)CC1)OC` ?
220

----------
# System Tested: human 5-HT2A receptor (Homo sapiens (Human))
# Sequence (P28223 whole entry): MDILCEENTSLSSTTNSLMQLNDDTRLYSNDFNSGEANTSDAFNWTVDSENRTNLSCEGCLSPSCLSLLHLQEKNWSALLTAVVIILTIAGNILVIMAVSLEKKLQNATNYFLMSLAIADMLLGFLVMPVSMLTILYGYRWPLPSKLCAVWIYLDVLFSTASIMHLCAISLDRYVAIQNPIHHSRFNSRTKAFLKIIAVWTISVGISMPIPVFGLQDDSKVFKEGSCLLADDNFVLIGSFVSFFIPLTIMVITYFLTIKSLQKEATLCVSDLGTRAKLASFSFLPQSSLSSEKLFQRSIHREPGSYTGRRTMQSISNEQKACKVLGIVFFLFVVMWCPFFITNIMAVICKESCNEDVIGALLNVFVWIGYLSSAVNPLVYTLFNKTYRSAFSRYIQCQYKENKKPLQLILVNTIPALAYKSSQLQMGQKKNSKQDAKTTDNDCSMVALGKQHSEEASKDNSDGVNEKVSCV
# Test: Radioligand binding assay, [3H]-ketanserin, human 5-HT2A receptor
# Run Parameters: membranes of HEK293 EBNA cells expressing human 5-HT2A; 1.1 nM [3H]-ketanserin
Kindly state Ki for each of the entries shown.

Field request: Ki | item: CS(=O)(=O)N[C@H]1CC[C@H](CCN2CCN(c3nccc4c3CCO4)CC2)CC1 [Example 48]
21.7 nM

Now this one: O=C(CC1CCCO1)N[C@H]1CC[C@H](CCN2CCN(c3nccc4c3CCO4)CC2)CC1 (mixture of isomers) [Example 64]
16.7 nM

Now the compound CO[C@@H]1CC[C@@H](CC(=O)N[C@H]2CC[C@H](CCN3CCN(c4nccc5occc45)CC3)CC2)C1 (racemic) [Example 2]
6.4 nM

// query: Cc1cc2c(c(N3CCN(CC[C@H]4CC[C@H](NC(=O)CC5CCOCC5)CC4)CC3)n1)CCO2 [Example 102]
193 nM

----------
I'd be grateful if you could share measured pKi for these entries.
# System Tested: human D2 receptor (Homo sapiens (Human), UniProt P14416)
# Test: Radioligand binding assay, [3H]-spiperone, human D2 receptor
# Run Parameters: membranes of HEK293 EBNA cells expressing human D2; 0.7 nM [3H]-spiperone
The meaning of pKi here: minus log10 of the concentration in molar units.

Look at this compound and give its reported pKi. O=C(CO)N[C@H]1CC[C@H](CCN2CCN(c3nccc4sccc34)CC2)CC1 [Example 27]
6.66

Also COCCC(=O)N[C@H]1CC[C@H](CCN2CCN(c3ncc(C)c4c3CCO4)CC2)CC1 [Example 111] , if possible.
5.45

Next up: O=C(C[C@@H](O)C(F)(F)F)N[C@H]1CC[C@H](CCN2CCN(c3nccc4c3CCO4)CC2)CC1 [Example 88]
6.14

Another: Cc1cc2occc2c(N2CCN(CC[C@H]3CC[C@H](NC(=O)CC4CCOCC4)CC3)CC2)n1 [Example 98]
6.19

----------
# System Tested: human D3 receptor (Homo sapiens (Human), UniProt P35462)
# Sequence (P35462 whole entry): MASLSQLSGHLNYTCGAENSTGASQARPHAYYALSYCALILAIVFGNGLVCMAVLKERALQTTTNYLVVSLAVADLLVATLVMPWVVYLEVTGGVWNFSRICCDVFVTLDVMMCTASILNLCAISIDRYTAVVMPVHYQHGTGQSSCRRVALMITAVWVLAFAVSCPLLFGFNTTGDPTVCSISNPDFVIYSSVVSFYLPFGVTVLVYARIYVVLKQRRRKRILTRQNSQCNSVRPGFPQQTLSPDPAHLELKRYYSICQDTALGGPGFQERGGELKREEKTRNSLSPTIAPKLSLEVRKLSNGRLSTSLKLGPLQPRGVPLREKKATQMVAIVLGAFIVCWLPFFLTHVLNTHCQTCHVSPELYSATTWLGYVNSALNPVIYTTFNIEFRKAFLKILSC
Attribute Measured: pKi
Scale: pKi equals -log10([C]), with [C] in mol/L.

Could you tell me which pKi is on file for O=CN[C@H]1CC[C@H](CCN2CCN(c3nccc4c3CCO4)CC2)CC1 [Example 83] ?
7.55

Continue with Cc1cnc(N2CCN(CC[C@H]3CC[C@H](NC(=O)CC4CCOCC4)CC3)CC2)c2c1OCC2 [Example 110]
7.16

Continue with O=C(N[C@H]1CC[C@H](CCN2CCN(c3nccc4c3CCO4)CC2)CC1)c1ccc(N2CCOCC2)cc1 [Example 57]
7.77

Note, next up: O=C(N[C@H]1CC[C@H](CCN2CCN(c3nccc4occc34)CC2)CC1)c1ccnc2ccccc12 [Example 29]
7.63

Cool, now O=C(CC1CC1)N[C@H]1CC[C@H](CCN2CCN(c3nccc4c3CCO4)CC2)CC1 [Example 51]
8.29

Repeat with O=C(CC1CCOCC1)N[C@H]1CC[C@H](CCN2CCN(c3nccc4occc34)CC2)CC1 [Example 10]
7.52

Repeat for the following compound: O=C(CC1C[C@H](O)CO1)N[C@H]1CC[C@H](CCN2CCN(c3nccc4c3CCO4)CC2)CC1 (stereo in doubt) [Example 91]
7.85

Another compound to look at: Cc1cnc(N2CCN(CC[C@H]3CC[C@H](NC(=O)C4CCOCC4)CC3)CC2)c2c1OCC2 [Example 109]
7.01

Proceed to O=C(CC1CCOCC1)N[C@H]1CC[C@H](CCN2CCN(c3nccc4c3CCO4)CC2)CC1 [Example 34]
7.60

Do the same for CC(C)(C)CC(=O)N[C@H]1CC[C@H](CCN2CCN(c3nccc4c3CCO4)CC2)CC1 [Example 72] please
7.77

Try the compound CC(C)CCC(=O)N[C@H]1CC[C@H](CCN2CCN(c3nccc4c3CCO4)CC2)CC1 [Example 93]
7.64

Same question, COCCC(=O)N[C@H]1CC[C@H](CCN2CCN(c3nccc4c3CCO4)CC2)CC1 [Example 35] this time
7.76

What would you report for CO[C@@H]1CC[C@@H](CC(=O)N[C@H]2CC[C@H](CCN3CCN(c4nccc5sccc45)CC3)CC2)C1 (racemic) [Example 21] ?
8.44

Could you do the same for O=C(CCO)N[C@H]1CC[C@H](CCN2CCN(c3nccc4c3CCO4)CC2)CC1 [Example 41] , please?
7.94

Try this compound next: CCCCC(=O)N[C@H]1CC[C@H](CCN2CCN(c3nccc4c3CCO4)CC2)CC1 [Example 94]
7.72

Thanks! And CCCC(=O)N[C@H]1CC[C@H](CCN2CCN(c3nccc4c3CCO4)CC2)CC1 [Example 92] ?
7.81
